molecules and their reported kd
# tested target: T1, EphA5 antigen (Homo sapiens, UniProt P54756)
# T1 construct: purchased R and D systems 3036-A5
# assay method text: kd (1/s)
Lab book: enter the figure in s⁻¹, no units written.

Some solved cases for reference:
[
  {
    "molecule": "VH5/VK4: humanized anti-EphA5 antibody, VH SEQ ID NO:6, VL SEQ ID NO:12; lead variant (antibody, V domains shown) VH: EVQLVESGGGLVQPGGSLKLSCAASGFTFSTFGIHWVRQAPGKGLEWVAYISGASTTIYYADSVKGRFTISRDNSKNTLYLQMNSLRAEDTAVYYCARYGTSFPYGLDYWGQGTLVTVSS VL: DIVMTQSPDSLAVSLGERATINCKSSQSVDYDGDSYMNWYQQKPGKAPKLLIYGASNLESGIPDRFSGSGSGTDFTLTISRLEPEDAASYYCQQSNEDPFTFGQGTKLEIK",
    "kd, s⁻¹": 0.00128
  },
  {
    "molecule": "VH4/VK4: humanized anti-EphA5 antibody, VH SEQ ID NO:5, VL SEQ ID NO:12; lead variant (antibody, V domains shown) VH: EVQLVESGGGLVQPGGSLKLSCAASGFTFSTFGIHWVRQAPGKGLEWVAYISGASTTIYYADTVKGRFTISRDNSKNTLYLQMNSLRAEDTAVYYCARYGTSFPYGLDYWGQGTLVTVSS VL: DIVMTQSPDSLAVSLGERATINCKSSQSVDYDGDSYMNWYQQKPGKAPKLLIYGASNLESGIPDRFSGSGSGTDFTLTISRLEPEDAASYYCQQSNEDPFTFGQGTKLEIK",
    "kd, s⁻¹": 0.00132
  },
  {
    "molecule": "VH5/VK2: humanized anti-EphA5 antibody, VH SEQ ID NO:6, VL SEQ ID NO:10; lead variant (antibody, V domains shown) VH: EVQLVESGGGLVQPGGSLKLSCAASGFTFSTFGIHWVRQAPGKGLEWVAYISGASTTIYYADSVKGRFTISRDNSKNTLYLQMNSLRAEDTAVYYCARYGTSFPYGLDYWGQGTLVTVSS VL: DIVMTQSPDSLAVSLGERATINCKASQSVDYDGDSYMNWYQQKPGKAPKLLIYGASNLESGIPDRFSGSGSGTDFTLTISRLEPEDAASYYCQQSNEDPFTFGQGTKLEIK",
    "kd, s⁻¹": 0.00125
  }
]

Now turn to the next molecule.
For VH3/VK4: humanized anti-EphA5 antibody, VH SEQ ID NO:4, VL SEQ ID NO:12; lead variant (antibody, V domains shown) VH: EVQLVESGGGLVQPGGSLKLSCAASGFTFSTFGIHWVRQAPGKGLEWVAYISGASTTIYYADTVKGRFTISRDNSKNTLYLQMNSLRSEDTAMYYCARYGTSFPYGLDYWGQGTLVTVSS VL: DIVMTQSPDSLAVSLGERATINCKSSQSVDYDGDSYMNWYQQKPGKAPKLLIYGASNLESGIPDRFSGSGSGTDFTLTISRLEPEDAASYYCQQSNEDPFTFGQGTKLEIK , write its kd. 0.00142
